- Tested on: MCF7 breast
- procedure text: NCI tumour cell line growth inhibition, 48 h
endpoint name: TGI

>  <molecule>
COc1ccc(-c2nc(-c3nc4ccc(C)cc4[nH]3)cc3c2[nH]c2ccccc23)cc1

>  <endpoint name>
TGI

>  <measured result>
56.3 µM

$$$$
>  <molecule>
Cc1nc(-c2cc3ccccc3oc2=O)cs1

>  <endpoint name>
TGI

>  <measured result>
> 100 µM

$$$$
>  <molecule>
COc1cc(/C=C/c2ccc(O)c(OC)c2)cc(OC)c1

>  <endpoint name>
TGI

>  <measured result>
> 100 µM

$$$$
>  <molecule>
Cc1ccc(-c2nc(/C=N/Nc3cc(C)nc4ccc(Cl)cc34)c(C)o2)cc1

>  <endpoint name>
TGI

>  <measured result>
3.2 µM

$$$$
>  <molecule>
Cn1cc(C2=C(c3c[nH]c4ccccc34)C(=O)NC2=O)c2ccccc21

>  <endpoint name>
TGI

>  <measured result>
> 25 µM

$$$$
>  <molecule>
CN(C)CC1CC/C(=C\c2ccc3c(c2)OCO3)C1=O (stereo unspecified)

>  <endpoint name>
TGI

>  <measured result>
19.8 µM

$$$$
>  <molecule>
CS(=O)(=O)Nc1cccc(-c2ccc3ncnc(Nc4ccc(F)c(Cl)c4)c3c2)c1

>  <endpoint name>
TGI

>  <measured result>
6.93 µM

$$$$
>  <molecule>
Cc1ncc(COP(=O)(O)O)c(/C=C2\SC(=S)NC2=O)c1O

>  <endpoint name>
TGI

>  <measured result>
> 100 µM

$$$$
>  <molecule>
C#C[C@@]1(O)[C@@H](CO)O[C@@H](n2cc(I)c3c(N)ncnc32)[C@@H]1O

>  <endpoint name>
TGI

>  <measured result>
> 100 µM

$$$$
>  <molecule>
COC(NC(=O)Nc1ccccc1C)(C(F)(F)F)C(F)(F)F

>  <endpoint name>
TGI

>  <measured result>
> 100 µM

$$$$
>  <molecule>
O=C1NC(Cc2ccc(O)cc2)C(=O)NC1Cc1ccc(O)cc1 (stereo unspecified)

>  <endpoint name>
TGI

>  <measured result>
> 100 µM

$$$$
